// values below are reported melting point
Numeric answer only, unit °C assumed.

Take a look at these entries with their results.
[[record]]
compound = "Cn1c(=O)c(C2=NNC(=O)C2=NNc2ccc(I)cc2)c(O)c2ccccc21"
measurement_type = "melting point"
numeric_readout = 262

[[record]]
compound = "COc1ccc(C(C)NCC(OC)OC)cc1O (configuration not stated)"
measurement_type = "melting point"
numeric_readout = 88

[[record]]
compound = "COC(=O)C1CCCc2c1[nH]c1cc(OC)ccc21 (configuration not stated)"
measurement_type = "melting point"
numeric_readout = 92

[[record]]
compound = "Cc1cc(C(C)(C)c2ccc(O)c(C)c2)ccc1O"
measurement_type = "melting point"
numeric_readout = 139


Query: Which melting point value belongs to S=C=Nc1ccccc1I ?
Reply: 39

Query: Which melting point value belongs to O=C1OC(=O)c2c(F)c(F)c(F)c(F)c21 ?
Reply: 95

Query: Which melting point value belongs to Nc1ccc(Cc2ccccc2)cc1 ?
Reply: 37

Query: Which melting point value belongs to CN1C(=C(O)Nc2ccccn2)C(=O)c2sccc2S1(=O)=O ?
Reply: 211

Query: Which melting point value belongs to Nc1cccc(C(F)(F)F)n1 ?
Reply: 88

Query: Which melting point value belongs to NNC(=O)c1cccnc1 ?
Reply: 162

Hello, the source for this data is a melting point compilation (Tetko et al.), in case you need it.
